- Test system: Human non-small cell lung cancer line PC9
- ASSAY PROTOCOL: MTT assay cytotoxicity, PC9
- Assay type: cell-based
- RECORDED CONDITIONS: 24 hr treatment, read-out: anticancer activity Human non-small cell lung cancer line PC9
pIC50: −log10 of the molar value.
# reported pIC50; entries follow

- SUBSTANCE: "Ac-KRIVQRIKDFLRAGPIKDFLR-NH2 [SEQ ID NO: 5, Ac-KRIVQRIKDFLR-AGP-IKDFLR-NH2]"
  pIC50: 4.98
- SUBSTANCE: "Ac-KRIVQRIKDFLRAGPRRLVRI-NH2 [SEQ ID NO: 7, Ac-KRIVQRIKDFLR-AGP-RRLVRI-NH2]"
  pIC50: 4.77
- SUBSTANCE: "Ac-KRIVQRIKDFLRAGPRRWWRW-NH2 [SEQ ID NO: 6, Ac-KRIVQRIKDFLR-AGP-RRWWRW-NH2]"
  pIC50: 5.27

---

- Test system: Human non-small cell lung cancer line A549
- Assay type: cell-based
- RECORDED CONDITIONS: 24 h

- SUBSTANCE: "Ac-KRIVQRIKDFLRAGPRRLVRI-NH2 [SEQ ID NO: 7, Ac-KRIVQRIKDFLR-AGP-RRLVRI-NH2]"
  IC50, µM: 3.86
- SUBSTANCE: "Ac-KRIVQRIKDFLRAGPIKDFLR-NH2 [SEQ ID NO: 5, Ac-KRIVQRIKDFLR-AGP-IKDFLR-NH2]"
  IC50, µM: 6.26
- SUBSTANCE: "Ac-KRIVQRIKDFLRAGPRRWWRW-NH2 [SEQ ID NO: 6, Ac-KRIVQRIKDFLR-AGP-RRWWRW-NH2]"
  IC50, µM: 1.61

---

- Test system: oral squamous cell carcinoma cell line OECM-1
- ASSAY PROTOCOL: MTT assay cytotoxicity, OECM-1
- Format: cell-based
- RECORDED CONDITIONS: 24 hr treatment, read-out: anticancer activity oral squamous cell carcinoma cell line OECM-1
pIC50: −log10 of the molar value.
QUANTITY NAME: pIC50

- SUBSTANCE: "Ac-KRIVQRIKDFLRAGPRRWWRW-NH2 [SEQ ID NO: 6, Ac-KRIVQRIKDFLR-AGP-RRWWRW-NH2]"
  ENDPOINT VALUE: 5.34
- SUBSTANCE: "Ac-KRIVQRIKDFLRAGPRRLVRI-NH2 [SEQ ID NO: 7, Ac-KRIVQRIKDFLR-AGP-RRLVRI-NH2]"
  ENDPOINT VALUE: 4.95
- SUBSTANCE: "Ac-KRIVQRIKDFLRAGPIKDFLR-NH2 [SEQ ID NO: 5, Ac-KRIVQRIKDFLR-AGP-IKDFLR-NH2]"
  ENDPOINT VALUE: 4.94
